target: P. yoelii cytochrome c reductase (Plasmodium yoelii, UniProt Q7PDA7)
Sequence (Q7PDA7 1-376): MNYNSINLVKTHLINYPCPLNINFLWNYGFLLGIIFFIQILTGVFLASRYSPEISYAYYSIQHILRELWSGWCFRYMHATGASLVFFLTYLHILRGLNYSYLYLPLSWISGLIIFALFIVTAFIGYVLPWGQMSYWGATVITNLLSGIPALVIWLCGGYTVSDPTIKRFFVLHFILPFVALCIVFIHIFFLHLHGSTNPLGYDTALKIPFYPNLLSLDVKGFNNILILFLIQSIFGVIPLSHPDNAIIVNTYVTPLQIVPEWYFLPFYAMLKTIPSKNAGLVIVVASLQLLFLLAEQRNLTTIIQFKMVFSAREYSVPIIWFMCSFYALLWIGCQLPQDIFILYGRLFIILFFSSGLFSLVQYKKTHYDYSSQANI
Sequence (V7P9V8 31-357 partner): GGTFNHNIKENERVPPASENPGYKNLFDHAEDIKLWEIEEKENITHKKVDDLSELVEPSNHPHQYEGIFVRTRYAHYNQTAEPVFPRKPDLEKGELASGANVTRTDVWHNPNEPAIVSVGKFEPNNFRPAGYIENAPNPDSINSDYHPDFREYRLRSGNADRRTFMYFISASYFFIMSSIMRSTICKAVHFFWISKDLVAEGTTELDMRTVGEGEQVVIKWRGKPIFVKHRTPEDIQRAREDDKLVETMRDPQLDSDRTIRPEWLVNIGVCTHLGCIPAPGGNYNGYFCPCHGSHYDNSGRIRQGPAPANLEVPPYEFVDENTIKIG
Sequence (Q7RJI2 1-394 partner): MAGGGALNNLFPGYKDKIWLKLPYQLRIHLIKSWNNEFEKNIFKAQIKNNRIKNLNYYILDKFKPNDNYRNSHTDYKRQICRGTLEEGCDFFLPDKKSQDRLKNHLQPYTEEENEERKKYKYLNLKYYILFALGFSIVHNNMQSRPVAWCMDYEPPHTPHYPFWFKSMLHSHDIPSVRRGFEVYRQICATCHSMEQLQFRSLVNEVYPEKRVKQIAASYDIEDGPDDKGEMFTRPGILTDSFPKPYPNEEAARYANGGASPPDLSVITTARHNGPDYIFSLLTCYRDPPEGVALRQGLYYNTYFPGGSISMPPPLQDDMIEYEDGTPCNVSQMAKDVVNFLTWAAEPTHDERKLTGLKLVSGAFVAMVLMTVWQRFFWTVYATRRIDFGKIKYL
testReadout: IC50

compound="CCCCCCCCCCOc1cc2c(O)c(C(=O)OCC)cnc2cc1OCC [Decoquinate]" systemname="P. yoelii cytochrome c reductase (Plasmodium yoelii, UniProt Q7PDA7)" result="0.097 µM"
compound="O=C1C(O)=C([C@H]2CC[C@H](c3ccc(Cl)cc3)CC2)C(=O)c2ccccc21 [atovaquone]" systemname="P. yoelii cytochrome c reductase (Plasmodium yoelii, UniProt Q7PDA7)" result="0.0076 µM"

----------
tested on: Murine pro-B cell line Ba/F3; test: Cytotoxicity, Ba/F3 cells; format: cell-based; settings: read-out: mammalian cell line CC50; Ba/F3; CellTiter Glo reagent
testReadout: CC50

molecule=Cl.Cl.O=C(Nc1ccc(C2=NCCCN2)cc1)c1ccc(C(=O)Nc2ccc(C3=NCCCN3)cc2)cc1 testreadout=CC50 result="550 nM"
molecule="COC[C@H]1C(=O)NCC(=O)N2NCCC[C@H]2C(=O)N(O)[C@H](C)C(=O)O[C@@H](C(C)C)[C@H](NC(=O)[C@](C)(O)[C@]2(O)CC[C@@H](CC(C)C)[C@H](C)O2)C(=O)N2NCCC[C@@H]2C(=O)N1O [Aurantimycin A]" testreadout=CC50 result="45 nM"
molecule=CCCOC(=O)C[N+](C)(C)CCOCCCCCCCCCCOCC[N+](C)(C)CC(=O)OCCC testreadout=CC50 result="> 6250 nM"
molecule=CO\C=C(C(=O)OC)/C(C)=C\C=C\c1ccc(Cl)c(OC)c1 testreadout=CC50 result="3100 nM"
molecule="O[Si](CCCN1CCCCC1)(c1ccccc1)C1CCCCC1 (centres unmarked) [HHSiD, Hexahydro-sila-difenidol]" testreadout=CC50 result="> 1250 nM"

----------
tested on: P. falciparum D10attB; assay: SYBR Green proliferation assay, parental D10attB line; format: cell-based; settings: Plasmodium falciparum, read-out: IC50 values, D10attB
pIC50: −log10 of the molar value.
testReadout: pIC50

compound="O=C1C(O)=C([C@H]2CC[C@H](c3ccc(Cl)cc3)CC2)C(=O)c2ccccc21 [atovaquone]" result=9.29
compound="OC(c1cc(C(F)(F)F)nc2c(C(F)(F)F)cccc12)C1CCCCN1 (stereo not drawn) [mefloquine]" result=8.10
compound="CCCCCCCCCCOc1cc2c(O)c(C(=O)OCC)cnc2cc1OCC [Decoquinate]" result=8.28

----------
experiment: Cytotoxicity, Ba/F3 cells; assay type: cell-based, murine; conditions: mouse, Ba/F3 cells
testReadout: CC50 at 3 days

compound="N=C(N)NCCCCCCCCCCNC(=N)N [Synthalin]" result="> 5400 nM"
compound="CCCCCCCCCCOc1cc2c(O)c(C(=O)OCC)cnc2cc1OCC [Decoquinate]" result="> 12500 nM"
compound=COc1ccc2cc3[n+](cc2c1OC)CCc1cc2c(cc1-3)OCO2 result="320 nM"
compound=CCN(CC)CCOc1ccc2c(c1)C(=O)c1cc(OCCN(CC)CC)ccc1-2 result="> 12500 nM"
compound=C[C@@H]1C[C@H](C)C[C@H](C)[C@@H](O)CC(=O)O[C@H]([C@@H]2CCC[C@H]2C(=O)O)C/C=C/C=C(/C#N)[C@H](O)[C@@H](C)C1 result="959 nM"
compound=CN(C)c1ccc(C(=C2C=CC(=[N+](C)C)C=C2)c2ccc(N(C)C)cc2)cc1 result="> 1250 nM"
compound=CCCCCCC[N+](CC)(CC)CCCCc1ccc(Cl)cc1 result="> 1250 nM"
compound=CC(C)[C@@H]1NC(=O)[C@H](C)OC(=O)[C@@H](C(C)C)NC(=O)[C@@H](C(C)C)OC(=O)[C@H](C(C)C)NC(=O)[C@H](C)OC(=O)[C@@H](C(C)C)NC(=O)[C@@H](C(C)C)OC(=O)[C@H](C(C)C)NC(=O)[C@H](C)OC(=O)[C@@H](C(C)C)NC(=O)[C@@H](C(C)C)OC1=O result="91 nM"

----------
test system: P. falciparum 3D7 strain; assay: SYBR Green parasite proliferation assay, 3D7; assay type: cell-based, Plasmodium falciparum; conditions: CC50 Ba/F3 / IC50 P. falciparum 3D7
Could you label it Condition met if measured therapeutic index CC50/IC50 is 10 or higher, and Condition not met otherwise?

compound="CCCCCCCCNC(C)C(O)c1ccc(SC(C)C)cc1 (stereo not drawn)" systemname="P. falciparum 3D7 strain" answerlabel="Condition not met"
compound=Cl.Cl.O=C(Nc1ccc(C2=NCCCN2)cc1)c1ccc(C(=O)Nc2ccc(C3=NCCCN3)cc2)cc1 systemname="P. falciparum 3D7 strain" answerlabel="Condition not met"
compound=CC1=C[C@H]2O[C@@H]3C[C@H]4OC(=O)/C=C\C=C\C(=O)OCC/C(C)=C/C(=O)OC[C@@]2(CC1)[C@]4(C)[C@]31CO1 systemname="P. falciparum 3D7 strain" answerlabel="Condition met"
compound="N=C(N)NCCCCCCCCCCNC(=N)N [Synthalin]" systemname="P. falciparum 3D7 strain" answerlabel="Condition met"
compound="O[Si](CCCN1CCCCC1)(c1ccccc1)C1CCCCC1 (stereo not drawn) [HHSiD, Hexahydro-sila-difenidol]" systemname="P. falciparum 3D7 strain" answerlabel="Condition met"
compound="CCC(Cc1cnc2nc(N)nc(N)c2n1)c1ccc(C(=O)N[C@@H](CCC(=O)O)C(=O)O)cc1 (stereo partly drawn) [Edatrexate]" systemname="P. falciparum 3D7 strain" answerlabel="Condition not met"
compound=COc1ccc2cc3[n+](cc2c1OC)CCc1cc2c(cc1-3)OCO2 systemname="P. falciparum 3D7 strain" answerlabel="Condition not met"
compound=COc1ccc(C[C@H](N)C(=O)N[C@H]2[C@@H](O)[C@H](n3cnc4c(N(C)C)ncnc43)O[C@@H]2CO)cc1 systemname="P. falciparum 3D7 strain" answerlabel="Condition met"
compound="COC[C@H]1C(=O)NCC(=O)N2NCCC[C@H]2C(=O)N(O)[C@H](C)C(=O)O[C@@H](C(C)C)[C@H](NC(=O)[C@](C)(O)[C@]2(O)CC[C@@H](CC(C)C)[C@H](C)O2)C(=O)N2NCCC[C@@H]2C(=O)N1O [Aurantimycin A]" systemname="P. falciparum 3D7 strain" answerlabel="Condition not met"
compound=CCN(CC)CCOc1ccc2c(c1)C(=O)c1cc(OCCN(CC)CC)ccc1-2 systemname="P. falciparum 3D7 strain" answerlabel="Condition met"
compound="CCOC(=O)c1cnc2cc(OCC3CC3)c(OCC3CC3)cc2c1O [Ciproquinate]" systemname="P. falciparum 3D7 strain" answerlabel="Condition met"
compound=C[C@@H]1C[C@H](C)C[C@H](C)[C@@H](O)CC(=O)O[C@H]([C@@H]2CCC[C@H]2C(=O)O)C/C=C/C=C(/C#N)[C@H](O)[C@@H](C)C1 systemname="P. falciparum 3D7 strain" answerlabel="Condition met"
compound=CC(C)[C@@H]1NC(=O)[C@H](C)OC(=O)[C@@H](C(C)C)NC(=O)[C@@H](C(C)C)OC(=O)[C@H](C(C)C)NC(=O)[C@H](C)OC(=O)[C@@H](C(C)C)NC(=O)[C@@H](C(C)C)OC(=O)[C@H](C(C)C)NC(=O)[C@H](C)OC(=O)[C@@H](C(C)C)NC(=O)[C@@H](C(C)C)OC1=O systemname="P. falciparum 3D7 strain" answerlabel="Condition met"
compound=CCCOC(=O)C[N+](C)(C)CCOCCCCCCCCCCOCC[N+](C)(C)CC(=O)OCCC systemname="P. falciparum 3D7 strain" answerlabel="Condition met"
compound=CO\C=C(C(=O)OC)/C(C)=C\C=C\c1ccc(Cl)c(OC)c1 systemname="P. falciparum 3D7 strain" answerlabel="Condition met"

----------
# key: entry, value: CC50 at 3 days
experiment: Cytotoxicity, Ba/F3 cells; assay type: cell-based, murine; settings: mouse, Ba/F3 cells
testReadout: CC50 at 3 days

molecule="CCC(Cc1cnc2nc(N)nc(N)c2n1)c1ccc(C(=O)N[C@@H](CCC(=O)O)C(=O)O)cc1 (stereo partly shown) [Edatrexate]" result="5 nM"
molecule="CCOC(=O)c1cnc2cc(OCC3CC3)c(OCC3CC3)cc2c1O [Ciproquinate]" result="> 1250 nM"
molecule=COc1ccc(C[C@H](N)C(=O)N[C@H]2[C@@H](O)[C@H](n3cnc4c(N(C)C)ncnc43)O[C@@H]2CO)cc1 result="> 1250 nM"
molecule="CCCCCCCCNC(C)C(O)c1ccc(SC(C)C)cc1 (stereo not shown)" result="970 nM"

----------
test system: P. falciparum 3D7 strain; experiment: SYBR Green parasite proliferation assay, 3D7; type: cell-based, Plasmodium falciparum; conditions: CC50 Ba/F3 / IC50 P. falciparum 3D7
# key: entry, value: therapeutic index CC50/IC50
testReadout: therapeutic index CC50/IC50

molecule=CN(C)c1ccc(C(=C2C=CC(=[N+](C)C)C=C2)c2ccc(N(C)C)cc2)cc1 systemname="P. falciparum 3D7 strain" testreadout="therapeutic index CC50/IC50" result=>4
molecule="CCCCCCCCCCOc1cc2c(O)c(C(=O)OCC)cnc2cc1OCC [Decoquinate]" systemname="P. falciparum 3D7 strain" testreadout="therapeutic index CC50/IC50" result=>2,500
molecule=CCCCCCC[N+](CC)(CC)CCCCc1ccc(Cl)cc1 systemname="P. falciparum 3D7 strain" testreadout="therapeutic index CC50/IC50" result=>2.4
